Data provenance: paper PMC11024197

study_system: T1, PEX14 NTD (1-104) (human, UniProt O75381 1-104)
T1 construct: human PEX14, N-terminal domain, residues 1-104; also called PEX14 1-104; source: E. coli BL21 (DE3), purified (Ni-NTA, SUMO cleavage, reverse Ni-NTA, SEC); not shown: His6-SUMO, N-terminal, cleaved
T1 sequence (O75381 1-104): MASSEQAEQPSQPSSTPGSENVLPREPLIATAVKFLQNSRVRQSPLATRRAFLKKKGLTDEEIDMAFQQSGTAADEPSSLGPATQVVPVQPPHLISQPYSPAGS
experimental_protocol: ITC; PEX14 NTD (1-104) (20-60 µM) in the cell, titrated with PEX5 W peptides or W0 (0.4-0.6 mM), PEX13 FxxxF (0.46 mM) or PEX13 SH3-CTR (1 mM); 25 °C; 20 mM Tris pH 7.5, 50 mM NaCl; one-site binding model; PEX14 concentration corrected with the fit; triplicates
recorded_conditions: both partners purified
pKd: −log10 of the molar value.
metric_name: pKd

(a) AQAEQWAAEFIQQQG (15-mer with the W5 (di)aromatic motif of human PEX5; source: synthetic peptide, bought: PSL (Peptide Specialty Laboratories GmbH)) [PEX5 W5 peptide]
(b) ALSENWAQEFLAAGD (15-mer with the W1 (di)aromatic motif of human PEX5; source: synthetic peptide, bought: PSL (Peptide Specialty Laboratories GmbH)) [PEX5 W1 peptide]
Would you kindly point out which of a and b has the smaller pKd figure? Could you answer with the label of the item you picked?
b
(b: 7.14, a: 7.69)
